assay: Phase 1 DDI study: single-dose zanubrutinib PK alone and with steady-state rifabutin (NCT04470908); format: in vivo, human; details: human, plasma, oral, 320 mg, 320 mg zanubrutinib alone; arithmetic mean (SD)
value_type: half-life (h)
Reply numerically in h, unit not repeated.

Note down half-life recorded for C=CC(=O)N1CCC([C@@H]2CCNc3c(C(N)=O)c(-c4ccc(Oc5ccccc5)cc4)nn32)CC1
7.2

----------
assay: Phase 1 DDI study: single-dose zanubrutinib PK alone and with steady-state rifabutin (NCT04470908); format: in vivo, human; conditions: human, plasma, oral, 320 mg zanubrutinib + 300 mg rifabutin; geometric mean (CV); read-out: AUC0-∞
value_type: AUC(0-inf) (ng·h/mL)
Reply numerically in ng·h/mL, unit not repeated.

Note down AUC(0-inf) recorded for C=CC(=O)N1CCC([C@@H]2CCNc3c(C(N)=O)c(-c4ccc(Oc5ccccc5)cc4)nn32)CC1
1590
